Hey, just so you know, these numbers are from patent US20240173329A1.

measurement.description: Pharmacokinetic profile and brain distribution in rats after oral administration
Format: in vivo, rats (SD)
condition: SD (Sprague-Dawley), rat, oral 30 mg/kg, brain
metric.name: Cmax (ng/g)

| smiles | reported.measurement |
| --- | --- |
| Cc1ccc2c(Nc3cccc(Cl)c3F)nccc2c1NC(=O)c1csc2c(N)ncnc12 | 4880 |

---

measurement.description: Pharmacokinetic profile and brain distribution in rats after oral administration
Assay type: in vivo, rats (SD)
condition: male, SD, rat, oral 15 mg/kg, brain
Method: Example 2 evaluated pharmacokinetic profile and brain distribution of belvarafenib in rats after oral administration. The rat strain was SD supplied by Orient Bio Inc., Korea. […] In a single one day dosing regimen, rats were fasted overnight. The body weight of the rats was measured on the day of treatment, from which dosing volumes were set. […] Plasma and brain concentrations of belvarafenib determined by analysis using LC-MS/MS (Waters UPLC H-Class/Xevo TQ (Waters USA)). […]

| smiles | Cmax [ng/g] |
| --- | --- |
| Cc1ccc2c(Nc3cccc(Cl)c3F)nccc2c1NC(=O)c1csc2c(N)ncnc12 | 3910 |
